Source listed as patent US9856274B2.

Readings of IC50 for the listed molecules
Target: recombinant human PDE-10 enzyme (Homo sapiens (Human))
Experiment: Human PDE-10 inhibition enzyme assay (IMAP PDE Fluorescence Polarization)
Details: recombinant human PDE-10 expressed in baculoviral system; Fluorescein-labeled cAMP/cGMP substrate; 40-minute incubation at 37° C.
METRIC NAME: IC50

1. Cc1ncc(C)n2cc(CCc3nc4c5cccnc5ccn4n3)nc12 [Compound 27]
10 to 100 nM
2. Cc1ncc(C)n2nc(CCc3nc4c5c(ccc4n3C)CCCC5)nc12 [Compound 37]
≤ 10 nM
3. Cc1ncc(C)n2nc(CCc3nc4c5cccnc5sc4n3C)nc12 [Compound 7]
≤ 10 nM
4. c1cnc2ccn3nc(CCc4nc5ccccn5n4)nc3c2c1 [Compound 15]
> 500 nM
5. Cc1cccc2nc(CCc3nc4c5cccnc5ccn4n3)nn12 [Compound 14]
10 to 100 nM
6. Cc1cccn2nc(CCc3nc4c5cccnc5ccc4n3C)nc12 [Compound 9]
≤ 10 nM
7. Cc1ncc(C)n2nc(CCc3nc4c5cccnc5ccc4n3C)cc12 [Compound 24]
≤ 10 nM
8. Cc1ncc(C)n2nc(CCc3nc4ccc5ncccc5n4n3)nc12 [Compound 12]
100 to 500 nM
9. Cc1ncc(C)n2nc(C(C)Cc3nc4c5cccnc5ccc4n3C)nc12 (centres unmarked) [Compound 29]
≤ 10 nM
10. Cc1ncc(C)n2nc(CCc3nc4c5nccnc5ccc4n3C)nc12 [Compound 19]
≤ 10 nM
11. Cc1c(CCc2nc3c(F)ccc(C)n3n2)nc2c3cccnc3ccn12 [Compound 40]
≤ 10 nM
12. Cc1ncc(C)n2nc(CCc3nc4c5cccnc5ccn4n3)cc12 [Compound 35]
10 to 100 nM
13. Cn1c(CCc2nc3ccccn3n2)nc2c3cccnc3ccc21 [Compound 5]
10 to 100 nM
14. Cc1cccc2nc(CCc3nc4n(n3)CCc3ncccc3-4)nn12 [Compound 23]
> 500 nM
15. Cc1ncc(C)n2nc(CC(C)c3nc4c5cccnc5ccc4n3C)nc12 (centres unmarked) [Compound 30]
10 to 100 nM
16. Cn1c(CCc2cn3ccncc3n2)nc2c3cccnc3ccc21 [Compound 31]
> 500 nM
17. Cc1ccc(C)n2nc(CCc3nc4c5cccnc5ccn4n3)nc12 [Compound 16]
≤ 10 nM
18. Cn1c(CCc2nc3ccccn3n2)nc2c3ncccc3ccc21 [Compound 20]
100 to 500 nM
19. Cc1ncc(C)n2nc(CCc3nc4c(ccc5ncccc54)[nH]3)cc12 [Compound 28]
10 to 100 nM
20. Cc1ccc(C)n2cc(CCc3nc4c5cccnc5ccc4n3C)nc12 [Compound 32]
10 to 100 nM

---

Target: recombinant human PDE-10 enzyme (Homo sapiens (Human), UniProt Q9Y233)
Sequence (Q9Y233 whole entry): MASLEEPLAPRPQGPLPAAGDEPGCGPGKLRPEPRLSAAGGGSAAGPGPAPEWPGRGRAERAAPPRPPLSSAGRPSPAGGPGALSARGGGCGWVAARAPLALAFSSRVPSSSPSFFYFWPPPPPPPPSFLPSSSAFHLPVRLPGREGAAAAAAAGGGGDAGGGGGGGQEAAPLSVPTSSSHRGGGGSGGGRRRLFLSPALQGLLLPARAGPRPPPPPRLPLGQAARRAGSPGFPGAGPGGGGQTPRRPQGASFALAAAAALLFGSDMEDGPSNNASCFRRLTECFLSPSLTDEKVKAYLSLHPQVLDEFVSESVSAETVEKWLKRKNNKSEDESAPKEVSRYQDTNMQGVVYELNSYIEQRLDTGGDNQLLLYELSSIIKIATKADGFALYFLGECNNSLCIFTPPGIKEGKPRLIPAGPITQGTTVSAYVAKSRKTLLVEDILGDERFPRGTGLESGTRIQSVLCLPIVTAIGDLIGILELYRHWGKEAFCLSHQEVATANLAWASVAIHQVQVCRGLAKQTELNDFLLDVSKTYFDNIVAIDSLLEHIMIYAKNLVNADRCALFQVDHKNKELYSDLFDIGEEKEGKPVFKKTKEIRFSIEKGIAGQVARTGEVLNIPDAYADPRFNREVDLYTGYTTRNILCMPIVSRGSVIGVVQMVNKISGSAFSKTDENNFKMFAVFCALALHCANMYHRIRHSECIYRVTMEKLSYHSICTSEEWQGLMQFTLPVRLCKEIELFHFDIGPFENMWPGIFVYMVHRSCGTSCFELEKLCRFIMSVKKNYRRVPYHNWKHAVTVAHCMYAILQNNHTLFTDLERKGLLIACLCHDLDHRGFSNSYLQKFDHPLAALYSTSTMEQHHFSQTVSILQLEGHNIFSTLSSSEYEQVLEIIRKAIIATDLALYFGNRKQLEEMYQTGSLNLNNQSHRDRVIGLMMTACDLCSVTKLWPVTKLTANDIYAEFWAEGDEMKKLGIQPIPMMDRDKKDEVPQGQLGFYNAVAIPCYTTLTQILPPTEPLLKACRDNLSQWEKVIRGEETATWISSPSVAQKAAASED
Experiment: Human PDE-10 inhibition enzyme assay (IMAP PDE Fluorescence Polarization)
Settings: recombinant human PDE-10 expressed in baculoviral system; Fluorescein-labeled cAMP/cGMP substrate; 40-minute incubation at 37° C.
pIC50: −log10 of the molar value.
Reported pIC50 by item:
METRIC NAME: pIC50

1) Cc1ncc(C)n2cc(CCc3nc4c5cccnc5ccc4n3C)nc12
7.00 to 8.00
2) Cc1ncc(C)n2nc(CCc3nc4c5ncccc5ccc4n3C)nc12
≥ 8.00
3) Cc1ncc(C)n2nc(CCc3nc4c5c(ccn4c3C)CCCC5)nc12
≥ 8.00
4) Cn1c(CCc2cn3ccccc3n2)nc2c3cccnc3ccc21
< 6.30
5) Cc1cc(C)n2nc(CCc3nc4c5cccnc5ccn4n3)nc2n1
7.00 to 8.00
6) Cc1ncc(C)n2nc(CCc3nc4c5c(ccn4c3C)NCCO5)nc12
7.00 to 8.00
7) Cc1ncc(C)n2nc(CCc3nc4ccccn4n3)nc12
< 6.30
8) Cc1ccc(C)n2cc(CCc3nc4c5cccnc5ccn4n3)nc12
6.30 to 7.00
9) Cn1c(CCc2nc3ccccc3o2)nc2c3cccnc3ccc21
6.30 to 7.00
10) Cc1ncc(C)n2nc(CCc3nc4c(ccc5ncccc54)[nH]3)nc12
≥ 8.00
11) c1cnc2c(c1)ccn1nc(CCc3nc4ccccn4n3)nc21
< 6.30
12) Cc1ncc(C)n2nc(CCc3cn4ccccc4n3)nc12
7.00 to 8.00
13) Cc1ncc(C)n2nc(CCc3nc4c5cccnc5ccc4n3C)nc12
≥ 8.00
14) Cn1c(CCc2nc3ccccn3n2)nc2c3nccnc3ccc21
6.30 to 7.00
15) Cc1ncc(C)n2nc(CCc3nc4c5cccnc5ccn4n3)nc12
7.00 to 8.00
16) Cc1cccc2nc(CCc3nc4c5cccnc5ccc4n3C)nn12
≥ 8.00
17) Cc1ncc(C)n2nc(CCc3nc4c5c(ccc4n3C)OCCO5)nc12
≥ 8.00
18) Cc1ccc(Cl)c2cc(CCc3nc4c5cccnc5ccc4n3C)nn12
≥ 8.00
19) Cc1ncc(C)n2nc(CCc3nc4c5cccnc5ccn4c3C)nc12
≥ 8.00
20) Cc1ccc(C)n2nc(CCc3nc4c5cccnc5ccc4n3C)nc12
≥ 8.00
21) Cc1cnc(C)n2nc(CCc3nc4c5cccnc5ccc4n3C)nc12
7.00 to 8.00
